- TEST METHOD NOTES: Drug level in Sprague-Dawley rat plasma at 3 mg/kg, iv measured at 5 mins by LC-MS/MS
- Assay type: ADME, organism-based
PARAMETER MEASURED: concentration at 5 min (µM)
The reply should contain only the number, in µM.

SMILES REPR	PARAMETER MEASURED	UOM	EXPERIMENTAL RESULT
CCCC[C@@H]1NC(=O)[C@@H]2CCCN2C(=O)[C@@H](NC(=O)[C@H](CCCCN)NC(=O)[C@H](Cc2cnc[nH]2)NC(=O)[C@H](CO)NC(=O)[C@H](CC(C)C)NC(=O)[C@H](CCCNC(=N)N)NC(=O)[C@@H]2CCCN2C(=O)[C@H](CCCNC(=N)N)NC(=O)[C@@H]2CCC(=O)N2)C/C=C\C[C@@H](C(=O)O)NC(=O)[C@@H]2CCCN2C1=O	concentration at 5 min	µM	5.6

Now look at this entry.
I am curious: what concentration at 5 min value has been reported for CCCC[C@@H]1NC(=O)[C@@H]2CCCN2C(=O)[C@@H](NC(=O)[C@H](CCCCN)NC(=O)[C@H](Cc2cnc[nH]2)NC(=O)[C@H](CO)NC(=O)[C@H](CC(C)C)NC(=O)[C@H](CCCNC(=N)N)NC(=O)[C@@H]2CCCN2C(=O)[C@H](CCCNC(=N)N)NC(=O)[C@@H]2CCC(=O)N2)CCN(S(=O)(=O)c2ccccc2[N+](=O)[O-])C/C=C\C[C@@H](C(=O)O)NC(=O)[C@@H]2CCCN2C1=O ? 2.5

###

- STUDY SYSTEM: Apelin receptor (Homo sapiens)
- Sequence (P35414 whole entry): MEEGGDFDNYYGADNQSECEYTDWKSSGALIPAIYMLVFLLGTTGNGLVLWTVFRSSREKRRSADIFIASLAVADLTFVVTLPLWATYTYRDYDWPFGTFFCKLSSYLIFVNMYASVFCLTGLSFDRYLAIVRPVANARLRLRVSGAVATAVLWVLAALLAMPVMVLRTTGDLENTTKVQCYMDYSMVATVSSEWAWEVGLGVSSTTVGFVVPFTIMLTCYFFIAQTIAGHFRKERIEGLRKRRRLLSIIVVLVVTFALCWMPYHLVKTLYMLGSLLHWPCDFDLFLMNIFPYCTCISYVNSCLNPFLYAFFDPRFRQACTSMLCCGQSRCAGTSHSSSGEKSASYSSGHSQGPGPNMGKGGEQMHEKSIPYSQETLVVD
- TEST METHOD NOTES: Activity at human APJ receptor expressed in HEK293 cells assessed as dissociation of Galphai1 from Gbetagamma subunit after 5 mins by BRET assay
- Assay type: cell-based
Non-standard residues stand in square brackets, D forms with d. Residues, ends and D or L forms follow the SMILES beside them. AllylGly = C=CC[C@H](N)C(=O)O; pGlu = O=C1CC[C@@H](C(=O)O)N1; Nle = CCCC[C@H](N)C(=O)O
EC50 values for the compounds below.
The reply should contain only the number, in nM.

Observe how each entry below is paired with its result.
COMPOUND	EC50 (nM)
C=CC[C@H](NC(=O)[C@H](Cc1cnc[nH]1)NC(=O)[C@H](CO)NC(=O)[C@H](CC(C)C)NC(=O)[C@H](CCCNC(=N)N)NC(=O)[C@@H]1CCCN1C(=O)[C@H](CCCNC(=N)N)NC(=O)[C@@H]1CCC(=O)N1)C(=O)NCC(=O)N1CCC[C@H]1C(=O)N[C@@H](CCCC)C(=O)N[C@@H](CC=C)C(=O)N[C@@H](Cc1ccccc1)C(=O)O ([pGlu]RPRLSH[AllylGly]GP[Nle][AllylGly]F-OH)	0.8
CCCC[C@@H]1NC(=O)[C@@H]2CCCN2C(=O)[C@@H](NC(=O)[C@H](CCCCN)NC(=O)[C@H](Cc2cnc[nH]2)NC(=O)[C@H](CO)NC(=O)[C@H](CC(C)C)NC(=O)[C@H](CCCNC(=N)N)NC(=O)[C@@H]2CCCN2C(=O)[C@H](CCCNC(=N)N)NC(=O)[C@@H]2CCC(=O)N2)CCN(S(=O)(=O)c2ccccc2[N+](=O)[O-])C/C=C\C[C@@H](C(=O)O)NC(=O)[C@@H]2CCCN2C1=O	1.3

Now look at this entry.
I am curious: what EC50 value has been reported for C=CC[C@H](NC(=O)[C@H](CO)NC(=O)[C@H](CC(C)C)NC(=O)[C@H](CCCNC(=N)N)NC(=O)[C@H](CC=C)NC(=O)[C@H](CCCNC(=N)N)NC(=O)[C@@H]1CCC(=O)N1)C(=O)N[C@@H](CCCCN)C(=O)NCC(=O)N1CCC[C@H]1C(=O)N[C@@H](CCCC)C(=O)N1CCC[C@H]1C(=O)N[C@@H](Cc1ccccc1)C(=O)O ? 9.2

###

half-life at 1000 µM values for the compounds below.
- TEST METHOD NOTES: Half life in rat plasma at 1 mM by UPLC-MS analysis
- Type: ADME, cell-free
Starred links: 1 amine or outer side, 2 acyl side, 3 side chain; linkers in the order of their positions; H or OH if unused. Positions of bridges follow the written chain, without caps; N, C: chain ends. Non-standard residues stand in square brackets, D forms with d. Residues, ends and D or L forms follow the SMILES beside them. X2 = N=C(N)NCCC[C@@H](C(=O)[*:2])N(CC=[*:3])[*:1]; AllylGly = C=CC[C@H](N)C(=O)O; pGlu = O=C1CC[C@@H](C(=O)O)N1; Nle = CCCC[C@H](N)C(=O)O
The reply should contain only the number, in h.

COMPOUND	EXPERIMENTAL RESULT
CCCC[C@H](NC(=O)[C@@H]1CCCN1C(=O)CNC(=O)[C@@H]1C/C=C\CN(C(=O)[C@@H]2CCCN2C(=O)[C@H](CCCNC(=N)N)NC(=O)[C@@H]2CCC(=O)N2)[C@@H](CCCNC(=N)N)C(=O)N[C@@H](CC(C)C)C(=O)N[C@@H](CO)C(=O)N[C@@H](Cc2cnc[nH]2)C(=O)N1)C(=O)N1CCC[C@H]1C(=O)N[C@@H](Cc1ccccc1)C(=O)O ([pGlu]RP[X2]LSH[AllylGly]GP[Nle]PF-OH; staple (Z) 4-8)	7.7

I am curious: what half-life at 1000 µM value has been reported for CCCC[C@@H]1NC(=O)[C@@H]2CCCN2C(=O)[C@@H](NC(=O)[C@H](CCCCN)NC(=O)[C@H](Cc2cnc[nH]2)NC(=O)[C@H](CO)NC(=O)[C@H](CC(C)C)NC(=O)[C@H](CCCNC(=N)N)NC(=O)[C@@H]2CCCN2C(=O)[C@H](CCCNC(=N)N)NC(=O)[C@@H]2CCC(=O)N2)C/C=C\C[C@@H](C(=O)O)NC(=O)[C@@H]2CCCN2C1=O ? 8.6
